# assay-target: human ABCB1 (Homo sapiens)
# experimental-details: Vanadate-sensitive ATPase activity assay in Sf9 membrane vesicles, ABCB1
# Format: biochemical
# Set-up: made in house; host or cells: Sf9 insect cells (baculovirus), membrane vesicles; unit not given here
# condition-summary: vanadate-sensitive ATPase, from dose-response curves; basal 5.7±0.7
# ABCB1 ATPase Vmax listing for each entry below
Give the value as a plain number.

A selection of reference data follows.
compound	ABCB1 ATPase Vmax
COc1ccc(/C=C/c2nc(NCCCN3CCOCC3)c3cc4ccccc4cc3n2)cc1 [VCC478498]	7.2
COc1ccc(/C=C/c2nc(NCCCN(C)C)c3cc4ccccc4cc3n2)cc1 [VCC340963]	7.9
Brc1c2ccccc2c(Br)c2nc(-c3ccco3)c(-c3ccco3)nc12 [VCC450327]	9.6
Cc1ccc(-n2nc(C(C)(C)C)cc2Nc2nc3ccccc3nc2NCCCO)cc1 [VCC389777]	14.4
CC(C)CCNc1nc2cc3ccccc3cc2nc1NCCC(C)C [VCC979812]	15.8

GET /values?readout=ABCB1 ATPase Vmax&item= Cc1ccc(C)c(SCc2nc3cc4ccccc4cc3nc2CSc2cc(C)ccc2C)c1 [VCC891909]
7.8

Continue with CN(C)CCCNc1nc(/C=C/c2ccc(Cl)cc2)nc2cc3ccccc3cc12 [VCC450822]
10.5

###

# ABCG2 ATPase Vmax listing for each entry below
# assay-target: human ABCG2 (Homo sapiens)
# Sequence (Q9UNQ0 1-655): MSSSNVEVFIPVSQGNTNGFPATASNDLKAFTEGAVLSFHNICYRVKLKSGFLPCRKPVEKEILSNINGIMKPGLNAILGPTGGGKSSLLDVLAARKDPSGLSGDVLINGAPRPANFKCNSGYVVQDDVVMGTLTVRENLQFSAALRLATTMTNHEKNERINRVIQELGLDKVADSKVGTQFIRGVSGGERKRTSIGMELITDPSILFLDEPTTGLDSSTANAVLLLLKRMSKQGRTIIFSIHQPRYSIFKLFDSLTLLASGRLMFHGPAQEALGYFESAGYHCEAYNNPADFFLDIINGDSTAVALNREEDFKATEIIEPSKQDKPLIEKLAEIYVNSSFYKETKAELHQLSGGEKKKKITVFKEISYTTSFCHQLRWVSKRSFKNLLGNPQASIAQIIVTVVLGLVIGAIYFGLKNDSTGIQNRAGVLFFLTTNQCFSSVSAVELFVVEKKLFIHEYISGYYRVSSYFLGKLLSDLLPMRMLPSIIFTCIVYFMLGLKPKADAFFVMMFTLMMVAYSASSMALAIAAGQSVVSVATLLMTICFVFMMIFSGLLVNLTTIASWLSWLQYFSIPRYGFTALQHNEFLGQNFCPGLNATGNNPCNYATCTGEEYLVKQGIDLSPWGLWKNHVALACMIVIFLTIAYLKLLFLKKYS
# experimental-details: Vanadate-sensitive ATPase activity assay in Sf9 membrane vesicles, ABCG2
# Type: biochemical
# Design: made in house; host or cells: Sf9 insect cells (baculovirus), membrane vesicles
# condition-summary: vanadate-sensitive ATPase, from dose-response curves; basal 22±1.4
Give the value as a plain number.

A selection of reference data follows.
compound	endpoint-name	value-observed
COc1ccc(/C=C/c2nc(NCCCN(C)C)c3cc4ccccc4cc3n2)cc1 [VCC340963]	ABCG2 ATPase Vmax	22.2
COc1ccc(/C=C/c2nc(NCCCN3CCOCC3)c3cc4ccccc4cc3n2)cc1 [VCC478498]	ABCG2 ATPase Vmax	21.5
Cc1ccc(-n2nc(C(C)(C)C)cc2Nc2nc3ccccc3nc2NCCCO)cc1 [VCC389777]	ABCG2 ATPase Vmax	32.0

GET /values?readout=ABCG2 ATPase Vmax&item= O=c1c(O)c(-c2ccc(O)c(O)c2)oc2cc(O)cc(O)c12 [quercetin, reference compound]
38.5

Continue with Cc1ccc(C)c(SCc2nc3cc4ccccc4cc3nc2CSc2cc(C)ccc2C)c1 [VCC891909]
25.3

Continue with CC(C)CCNc1nc2cc3ccccc3cc2nc1NCCC(C)C [VCC979812]
22

Continue with CN(C)CCCNc1nc(/C=C/c2ccc(Cl)cc2)nc2cc3ccccc3cc12 [VCC450822]
23.3

Continue with Brc1c2ccccc2c(Br)c2nc(-c3ccco3)c(-c3ccco3)nc12 [VCC450327]
27.2

###

# assay-target: MtTopo-I (Mycobacterium tuberculosis, UniProt P9WG49)
# Construct: made in house; host or cells: E. coli
# Sequence (P9WG49 whole entry): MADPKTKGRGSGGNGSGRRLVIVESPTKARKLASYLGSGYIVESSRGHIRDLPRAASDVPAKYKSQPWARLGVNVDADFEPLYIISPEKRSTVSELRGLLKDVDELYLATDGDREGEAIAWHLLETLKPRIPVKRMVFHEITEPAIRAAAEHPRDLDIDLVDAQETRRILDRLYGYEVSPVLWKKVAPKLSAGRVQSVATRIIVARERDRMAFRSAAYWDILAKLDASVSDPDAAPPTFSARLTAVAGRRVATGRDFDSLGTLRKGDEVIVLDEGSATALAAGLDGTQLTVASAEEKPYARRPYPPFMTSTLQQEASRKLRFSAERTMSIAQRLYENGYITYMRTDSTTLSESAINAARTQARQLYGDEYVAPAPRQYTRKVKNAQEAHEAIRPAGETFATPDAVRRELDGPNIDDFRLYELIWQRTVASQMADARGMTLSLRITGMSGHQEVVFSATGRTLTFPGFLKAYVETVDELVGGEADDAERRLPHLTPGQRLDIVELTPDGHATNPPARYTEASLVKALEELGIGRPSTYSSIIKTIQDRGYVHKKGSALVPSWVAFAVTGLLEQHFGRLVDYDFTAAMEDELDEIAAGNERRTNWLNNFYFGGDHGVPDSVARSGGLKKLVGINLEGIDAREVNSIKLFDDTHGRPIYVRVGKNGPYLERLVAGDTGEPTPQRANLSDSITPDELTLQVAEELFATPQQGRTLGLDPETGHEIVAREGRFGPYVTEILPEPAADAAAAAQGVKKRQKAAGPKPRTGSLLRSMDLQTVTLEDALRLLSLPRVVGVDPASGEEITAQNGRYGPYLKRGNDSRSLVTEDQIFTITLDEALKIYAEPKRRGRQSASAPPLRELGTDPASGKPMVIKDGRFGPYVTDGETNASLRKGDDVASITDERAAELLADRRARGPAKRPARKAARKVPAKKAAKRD
# experimental-details: DNA relaxation assay of supercoiled pUC18 DNA by MtTopo-I
# Type: biochemical
# condition-summary: minimum concentration providing complete inhibition
endpoint-name: Complete inhibition of MtTopoI

GET /values?readout=Complete inhibition of MtTopoI&item= Brc1c2ccccc2c(Br)c2nc(-c3ccco3)c(-c3ccco3)nc12 [VCC450327]
0.1 µM

Continue with COc1ccc(/C=C/c2nc(NCCCN(C)C)c3cc4ccccc4cc3n2)cc1 [VCC340963]
10 to 25 µM

Continue with CC(C)CCNc1nc2cc3ccccc3cc2nc1NCCC(C)C [VCC979812]
10 µM

Continue with Cc1ccc(-n2nc(C(C)(C)C)cc2Nc2nc3ccccc3nc2NCCCO)cc1 [VCC389777]
7.5 to 10 µM

Continue with CN(C)CCCNc1nc(/C=C/c2ccc(Cl)cc2)nc2cc3ccccc3cc12 [VCC450822]
10.0 µM

Continue with COc1ccc(/C=C/c2nc(NCCCN3CCOCC3)c3cc4ccccc4cc3n2)cc1 [VCC478498]
10 to 25 µM

Continue with Cc1ccc(C)c(SCc2nc3cc4ccccc4cc3nc2CSc2cc(C)ccc2C)c1 [VCC891909]
7.5 to 10 µM

###

# assay-target: human ABCB1 (Homo sapiens, UniProt P08183)
# Sequence (P08183 whole entry): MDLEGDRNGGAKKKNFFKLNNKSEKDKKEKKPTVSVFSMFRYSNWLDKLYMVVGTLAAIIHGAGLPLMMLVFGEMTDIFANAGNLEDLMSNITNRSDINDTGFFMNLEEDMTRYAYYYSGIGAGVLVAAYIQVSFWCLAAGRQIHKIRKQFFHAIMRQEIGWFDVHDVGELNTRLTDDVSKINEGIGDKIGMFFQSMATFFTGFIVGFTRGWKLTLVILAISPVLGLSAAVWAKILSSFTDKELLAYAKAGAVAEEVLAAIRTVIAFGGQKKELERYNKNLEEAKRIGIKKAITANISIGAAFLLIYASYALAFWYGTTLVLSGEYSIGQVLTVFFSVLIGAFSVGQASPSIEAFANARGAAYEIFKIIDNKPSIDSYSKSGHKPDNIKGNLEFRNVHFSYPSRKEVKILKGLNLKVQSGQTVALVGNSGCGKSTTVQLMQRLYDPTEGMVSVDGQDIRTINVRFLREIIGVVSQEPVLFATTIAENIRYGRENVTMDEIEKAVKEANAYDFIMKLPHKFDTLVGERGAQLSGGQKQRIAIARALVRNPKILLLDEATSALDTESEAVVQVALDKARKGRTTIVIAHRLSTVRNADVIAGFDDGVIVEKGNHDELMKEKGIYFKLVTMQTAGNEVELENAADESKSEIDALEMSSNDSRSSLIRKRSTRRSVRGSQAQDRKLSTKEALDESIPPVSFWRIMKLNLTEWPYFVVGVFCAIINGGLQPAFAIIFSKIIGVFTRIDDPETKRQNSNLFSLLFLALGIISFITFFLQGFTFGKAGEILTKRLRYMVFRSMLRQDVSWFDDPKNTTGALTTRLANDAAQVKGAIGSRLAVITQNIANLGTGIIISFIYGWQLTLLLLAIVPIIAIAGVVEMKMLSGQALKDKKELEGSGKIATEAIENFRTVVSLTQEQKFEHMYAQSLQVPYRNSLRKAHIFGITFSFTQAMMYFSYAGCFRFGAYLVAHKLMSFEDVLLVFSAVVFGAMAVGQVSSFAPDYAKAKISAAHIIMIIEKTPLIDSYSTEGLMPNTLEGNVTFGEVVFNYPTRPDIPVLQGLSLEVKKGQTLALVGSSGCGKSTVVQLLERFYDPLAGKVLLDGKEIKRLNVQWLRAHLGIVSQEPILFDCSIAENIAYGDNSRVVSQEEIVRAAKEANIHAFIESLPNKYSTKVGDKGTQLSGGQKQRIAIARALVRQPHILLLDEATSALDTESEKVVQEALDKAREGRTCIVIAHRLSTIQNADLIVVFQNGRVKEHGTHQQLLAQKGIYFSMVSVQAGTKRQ
# experimental-details: Vanadate-sensitive ATPase activity assay in Sf9 membrane vesicles, ABCB1
# Format: biochemical
# Set-up: made in house; host or cells: Sf9 insect cells (baculovirus), membrane vesicles
# condition-summary: concentration at which Vmax was seen
endpoint-name: ABCB1 ATPase, concentration at Vmax

GET /values?readout=ABCB1 ATPase, concentration at Vmax&item= Cc1ccc(-n2nc(C(C)(C)C)cc2Nc2nc3ccccc3nc2NCCCO)cc1
12.5 µM

Continue with COc1ccc(/C=C/c2nc(NCCCN3CCOCC3)c3cc4ccccc4cc3n2)cc1
6.25 µM

Continue with CC(C)CCNc1nc2cc3ccccc3cc2nc1NCCC(C)C
12.5 µM

Continue with Brc1c2ccccc2c(Br)c2nc(-c3ccco3)c(-c3ccco3)nc12
0.19 µM

Continue with Cc1ccc(C)c(SCc2nc3cc4ccccc4cc3nc2CSc2cc(C)ccc2C)c1
3 µM

###

# assay-target: human ABCG2 (Homo sapiens)
# experimental-details: Vanadate-sensitive ATPase activity assay in Sf9 membrane vesicles, ABCG2
# Type: biochemical
# Set-up: made in house; host or cells: Sf9 insect cells (baculovirus), membrane vesicles; unit not given here
# condition-summary: concentration at which Vmax was seen
endpoint-name: ABCG2 ATPase, concentration at Vmax
Give the value as a plain number.

cpd-smiles	assay-target	endpoint-name	value-observed
Cc1ccc(C)c(SCc2nc3cc4ccccc4cc3nc2CSc2cc(C)ccc2C)c1	human ABCG2 (Homo sapiens)	ABCG2 ATPase, concentration at Vmax	0.01

Then there is this molecule:
Could you share what ABCG2 ATPase, concentration at Vmax was measured for Cc1ccc(-n2nc(C(C)(C)C)cc2Nc2nc3ccccc3nc2NCCCO)cc1 , tested on human ABCG2 (Homo sapiens)?
0.4

###

# assay-target: human ABCB1 (Homo sapiens, UniProt P08183)
# experimental-details: Vanadate-sensitive ATPase activity assay in Sf9 membrane vesicles, ABCB1; as to ABC transporter ATPase assay, ABCB1 (summary): key: 0: no observed effect; +: effect observed in the assay; In the ATPase assay showing only inhibition, the - sign is applied
# Type: biochemical
# Set-up: made in house; host or cells: Sf9 insect cells (baculovirus), membrane vesicles
# condition-summary: S6 summary table
endpoint-name: ABC transporter ATPase assay, ABCB1 (summary)
Give the value as a plain number.

A selection of reference data follows.
cpd-smiles	value-observed
COc1ccc(/C=C/c2nc(NCCCN3CCOCC3)c3cc4ccccc4cc3n2)cc1	0
Cc1ccc(C)c(SCc2nc3cc4ccccc4cc3nc2CSc2cc(C)ccc2C)c1	0

GET /values?readout=ABC transporter ATPase assay, ABCB1 (summary)&item= COc1ccc(/C=C/c2nc(NCCCN(C)C)c3cc4ccccc4cc3n2)cc1
0

###

# assay-target: human ABCB1 (Homo sapiens)
# experimental-details: Cellular transport assay, Calcein-AM uptake in ABCB1-overexpressing PLB cells; also: key: 0: no observed effect; +: effect observed in the assay; In the ATPase assay showing only inhibition, the - sign is applied
# Type: cell-based
# condition-summary: S6 summary table
endpoint-name: ABC transporter transport assay, ABCB1 (summary)

A selection of reference data follows.
compound	value-observed
Cc1ccc(C)c(SCc2nc3cc4ccccc4cc3nc2CSc2cc(C)ccc2C)c1 [VCC891909]	0
CN(C)CCCNc1nc(/C=C/c2ccc(Cl)cc2)nc2cc3ccccc3cc12 [VCC450822]	0
COc1ccc(/C=C/c2nc(NCCCN(C)C)c3cc4ccccc4cc3n2)cc1 [VCC340963]	+
Cc1ccc(-n2nc(C(C)(C)C)cc2Nc2nc3ccccc3nc2NCCCO)cc1 [VCC389777]	+
Brc1c2ccccc2c(Br)c2nc(-c3ccco3)c(-c3ccco3)nc12 [VCC450327]	0
COc1ccc(/C=C/c2nc(NCCCN3CCOCC3)c3cc4ccccc4cc3n2)cc1 [VCC478498]	+

Then there is this compound:
GET /values?readout=ABC transporter transport assay, ABCB1 (summary)&item= CC(C)CCNc1nc2cc3ccccc3cc2nc1NCCC(C)C [VCC979812]
+

Recorded values, source paper PMC6124754.
